Source listed as paper PMC9340783.

# subject-of-test: T1, hGITR ECD hFc (Homo sapiens (Human)., UniProt Q9Y5U5, Thr45Ala)
# T1 construct: human GITR (glucocorticoid-induced TNF receptor-related), extracellular domain, Gln26-Glu161 with Thr45Ala, UniProt Q9Y5U5.1; also called human GITR protein; source: FreeStyle 293F, transiently transfected, purified by protein A
# protocol-text: ELISA; indirect ELISA; antigen hFc fusion protein coated on 96-well plates (1 μg·mL^−1 overnight at 4 °C in Fig. 3B), antibody added, detected with anti-rat IgG/hIgG-peroxidase antibody
# assay-context: both partners purified
quantity-measured: EC50 (nM)
Give the value in nM but do not write nM after it.

Enquiry: Please look up its EC50: hab070 (antibody, V domains shown, 3503‐hab070‐VH; 3503‐hab070‐Vk; Whole antibody, human IgG1 heavy chain constant region, human kappa light chain constant region; source: FreeStyle 293F, transiently co-transfected, purified from culture supernatant) VH: QVQLVESGGGVVQPGRSLRLSCAASGFTFSSYGMHWVRQAPGKGLEWVAVIWYETSNKFYVDSVKGRFTISRDNSKNTLYLQMNSLRAEDTAVYYCARYGASSGWYWYFDLWGRGTLVTVSS VL: DIQLTQSPSFLSASVGDRVTITCRASQGISSFLAWYQQKPGKAPKLLIYAASTLQSGVPSRFSGSGSGTEFTLTISSLQPEDFATYCCQQLNSYPFTFGQGTKLEIK
Return: 0.099

Enquiry: Please look up its EC50: Tab9H6v3 (antibody, V domains shown, heavy chain variable region of clone 9H6v3 (AMGEN INC.); light chain variable region of clone 9H6v3 (AMGEN INC.)) VH: QVQLVESGGGVVQPGRSLRLSCVASGFTFSSYGMHWIRQAPGKGLEWVAVIWYEGSNKYYAESVKGRFTISRDNSKNTLYLQMNSLRAEDTAVYYCARGGRLGKDYYSGMDVWGQGTTVTVSS VL: DIQMTQSPSSLSASVGDRVTITCRASQGIRNDLGWYQQKPGKAPKRLIYATSSLQSGVPSRFSGSGSGTEFTLTISSLQPEDFATYYCLQHNTYPWTFGQGTKVEIK
Return: 0.088

Enquiry: Please look up its EC50: hab064e1 (antibody, V domains shown, 3503‐hab064‐VH(N2S); the substitution is against the VH of m13; position not given; 3503‐hab064‐Vk(T2K/C2Y); the substitutions are against the VL of m13; positions not given; Whole antibody, human IgG1 heavy chain constant region, human kappa light chain constant region; source: FreeStyle 293F, transiently co-transfected, purified from culture supernatant) VH: QVQLVESGGGVVQPGRSLRLSCAASGFTFSSYGMHWVRQAPGKGLEWVAVIWYETSNKYYADSVKGRFTISRDNSKNTLYLQMNSLRAEDTAVYYCARYGGNSGWYWYFDLWGRGTLVTVSS VL: DIQLTQSPSFLSASVGDRVTITCRASQGISSFLAWYQQKPGKAPKLLIYAASTLQSGVPSRFSGSGSGTEFTLTISSLQPEDFATYYCQQLNSYPFTFGQGTKLEIK
Return: 0.093

Enquiry: Please look up its EC50: mAb070 (antibody, V domains shown, as the VH of m14; as the VL of m14; Human-murine chimeric antibody from H2L2 mice: human variable regions, rat constant regions; source: hybridoma cell culture supernatant, purified (Protein A)) VH: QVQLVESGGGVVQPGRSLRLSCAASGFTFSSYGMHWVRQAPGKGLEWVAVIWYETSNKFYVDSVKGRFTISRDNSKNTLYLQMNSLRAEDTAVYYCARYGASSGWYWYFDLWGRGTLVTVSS VL: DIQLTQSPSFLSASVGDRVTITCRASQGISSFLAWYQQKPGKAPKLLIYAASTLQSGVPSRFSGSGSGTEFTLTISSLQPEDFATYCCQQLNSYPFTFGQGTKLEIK
Return: 0.022

Enquiry: Please look up its EC50: mAb064 (antibody, V domains shown, as the VH of m13; as the VL of m13; Human-murine chimeric antibody from H2L2 mice: human variable regions, rat constant regions; source: hybridoma cell culture supernatant, purified (Protein A)) VH: QVQLVESGGGVVQPGRSLRLSCAASGFTFSSYGMHWVRQAPGKGLEWVAVIWYETSNKYYADSVKGRFTISRDNSKNTLYLQMNNLRAEDTAVYYCARYGGNSGWYWYFDLWGRGTLVTVSS VL: DIQLTQSPSFLSASVGDRVTITCRASQGISSFLAWYQQKPGTAPKLLIYAASTLQSGVPSRFSGSGSGTEFTLTISSLQPEDFATYCCQQLNSYPFTFGQGTKLEIK
Return: 0.038

Enquiry: Please look up its EC50: hab070e1 (antibody, V domains shown, as the VH of m14 (3503‐hab070‐VH); 3503‐hab070‐Vk(C2Y); the substitution is against the VL of m14 (Cys in FR3 of VL); position not given; Whole antibody, human IgG1 heavy chain constant region, human kappa light chain constant region; also called hab70e1; source: FreeStyle 293F, transiently co-transfected, purified from culture supernatant) VH: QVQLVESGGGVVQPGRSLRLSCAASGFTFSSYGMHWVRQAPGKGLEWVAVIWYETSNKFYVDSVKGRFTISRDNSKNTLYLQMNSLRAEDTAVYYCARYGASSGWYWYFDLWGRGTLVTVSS VL: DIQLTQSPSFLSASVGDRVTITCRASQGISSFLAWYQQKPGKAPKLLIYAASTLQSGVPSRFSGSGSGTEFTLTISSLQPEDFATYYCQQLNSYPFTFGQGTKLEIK
Return: 0.101

Enquiry: Please look up its EC50: hab076 (antibody, V domains shown, 3503‐hab076‐VH; 3503‐hab076‐Vk; Whole antibody, human IgG1 heavy chain constant region, human kappa light chain constant region; source: FreeStyle 293F, transiently co-transfected, purified from culture supernatant) VH: QVQLVESGGGVVQPGRSLRLSCAASGFTFSSYGMHWVRQAPGKGLEWVAVIWYETSNKYYADSVKGRFTISRDNSKNTLYLQMNSLRAEDTAVYYCARYGASSGWYWYFDLWGRGTLVTVSS VL: DIQLTQSPSFLSASVGDRVTITCRASQGISSYLAWYQQKPGKAPKLLIYAASTLQSGVPSRFSGSGSGTEFTLTISSLQPEDFATYCCQQLNSYPFTFGQGTKLEIK
Return: 0.091
